System: Hepatotoxicity
Assay: FDA HLAED, serum glutamic pyruvic transaminase (SGPT) increase
Settings: human
endpoint: SGPT Increase - Number of Reports

Please review the following examples before continuing.
* O=C(O)c1cn(C2CC2)c2cc(N3CCNCC3)c(F)cc2c1=O [CIPROFLOXACIN] | >= 4
* C[C@]12CC[C@@H]3c4ccc(OC(=O)c5ccccc5)cc4CC[C@H]3[C@@H]1CC[C@@H]2O [ESTRADIOL BENZOATE] | >= 4
* CC[C@H]1OC(=O)[C@H](C)[C@@H](O[C@H]2C[C@@](C)(OC)[C@@H](O)[C@H](C)O2)[C@H](C)[C@@H](O[C@@H]2O[C@H](C)C[C@H](N(C)C)[C@H]2O)[C@](C)(OC)C[C@@H](C)C(=O)[C@H](C)[C@@H](O)[C@]1(C)O [CLARITHROMYCIN] | >= 4
* CCOC(=O)C1=C(C)NC(C)=C(C(=O)OC)C1c1cccc(Cl)c1Cl (configuration not stated) [FELODIPINE] | < 4
* CCCCCCC(=O)O[C@H]1CC[C@H]2[C@@H]3CCc4cc(O)ccc4[C@H]3CC[C@]12C [ESTRADIOL ENANTHATE] | >= 4
* CN(N=O)C(=O)N[C@@H](C=O)[C@@H](O)[C@H](O)[C@H](O)CO [STREPTOZOCIN] | < 4

// below: SGPT Increase - Number of Reports requested for another compound
Need SGPT Increase - Number of Reports, item C=CC1=C(C(=O)O)N2C(=O)[C@@H](NC(=O)/C(=N\OCC(=O)O)c3csc(N)n3)[C@H]2SC1 [CEFIXIME]
>= 4
